test system: Streptococcus mutans; test: Antibacterial activity against Streptococcus mutans ATCC 25175 after 48 hrs by broth microdilution method; assay type: functional; conditions: ATCC 25175, 48 h
propertyMeasured: MBC (µg/mL)
Answers are plain numbers, in µg/mL.

Here are 4 molecules together with their reported answers.
molecularstring=C=C[C@@](C)(/C=C/c1ccc(O)cc1)CC/C=C(/C)C=O numericresult=128
molecularstring=COc1ccc(/C=C/[C@@](C)(/C=C/c2ccc(O)cc2)CCC=C(C)C)cc1CO numericresult=4
molecularstring=CCCOc1ccc(/C=C/[C@@](C)(/C=C/c2ccc(O)cc2)CCC=C(C)C)cc1Cl numericresult=8
molecularstring=COc1ccccc1/C=C/[C@@](C)(/C=C/c1ccc(O)cc1)CCC=C(C)C numericresult=8

Would you mind listing MBC for each of the following molecules?
1. CC(C)=CCC[C@](C)(/C=C/c1ccc(O)cc1)/C=C/c1ccc(F)cc1
2. COc1ccc(/C=C/[C@@](C)(/C=C/c2ccc(O)cc2)CCC=C(C)C)cc1C=O

4
16

Would you mind listing MBC for each of the following molecules?
1. COc1ccc(/C=C/[C@@](C)(/C=C/c2ccc(O)cc2)CCC=C(C)C)cc1
2. CC(C)=CCCC(C)(/C=C/c1ccc(O)cc1)/C=C/c1ccc(O)cc1
3. COc1ccc(/C=C/[C@](C)(/C=C/c2ccc(O)cc2)CCC=C(C)C)cc1

[2, 1, 1]

---

Task for the reader: assign each of the following compounds its reported log10 of MBC.
test system: Porphyromonas gingivalis; test: Antibacterial activity against Porphyromonas gingivalis ATCC 33277 after 48 hrs by broth microdilution method; format: functional; settings: ATCC 33277, 48 h
Plainly stated, the numbers are log10 of MBC given in µg/mL.

Here are 6 compounds together with their reported answers.
compound="C=C[C@@](C)(/C=C/c1ccc(OC(C)=O)cc1)CCC=C(C)C [ACETYLBAKUCHIOL]" systemtested="Porphyromonas gingivalis" propertymeasured="log10 of MBC" numericresult=0.90
compound=CC(C)=CCC[C@@](C)(/C=C/c1ccc(N)cc1)/C=C/c1ccc(O)cc1 systemtested="Porphyromonas gingivalis" propertymeasured="log10 of MBC" numericresult=0.30
compound=COc1ccc(/C=C/[C@@](C)(/C=C/c2ccc(O)cc2)CCC=C(C)C)cc1CO systemtested="Porphyromonas gingivalis" propertymeasured="log10 of MBC" numericresult=0.60
compound=COc1ccccc1/C=C/[C@@](C)(/C=C/c1ccc(O)cc1)CCC=C(C)C systemtested="Porphyromonas gingivalis" propertymeasured="log10 of MBC" numericresult=0.30
compound="Oc1cc(Cl)ccc1Oc1ccc(Cl)cc1Cl [TRICLOSAN]" systemtested="Porphyromonas gingivalis" propertymeasured="log10 of MBC" numericresult=0.30
compound=CC(C)=CCCC(C)(/C=C/c1ccc(O)cc1)/C=C/c1ccc(O)cc1 systemtested="Porphyromonas gingivalis" propertymeasured="log10 of MBC" numericresult=0.00

Would you mind listing log10 of MBC for each of the following compounds?
1. CCCOc1ccc(/C=C/[C@@](C)(/C=C/c2ccc(O)cc2)CCC=C(C)C)cc1Cl
2. C=C[C@@](C)(/C=C/c1ccc(O)cc1)CCC1OC1(C)C (stereo partly drawn)
3. COc1ccc(/C=C/[C@](C)(/C=C/c2ccc(O)cc2)CCC=C(C)C)cc1
4. C=C[C@@](C)(/C=C/c1ccc(OC)cc1)CCC=C(C)C
5. C=C[C@@](C)(/C=C/c1ccc(O)c([N+](=O)[O-])c1)CCC=C(C)C
6. C=C[C@@](C)(/C=C/c1ccc(O)c(N)c1)CCC=C(C)C

[0.60, 1.81, -0.30, 1.51, 1.51, 0.60]

---

test system: Actinomyces viscosus; test: Antibacterial activity against Actinomyces viscosus ATCC 15987 after 48 hrs by broth microdilution method; type: functional; details: ATCC 15987, 48 h
Values of MBC strictly less than 8 µg/mL map to T, and values of at least 8 µg/mL map to F.

Consider the following illustrative entries.
molecule=CC(C)=CCCC(C)(/C=C/c1ccc(O)cc1)/C=C/c1ccc(O)cc1 cat=T
molecule=COc1ccc(/C=C/[C@@](C)(/C=C/c2ccc(O)cc2)CCC=C(C)C)cc1 cat=T
molecule=CC[C@](C)(CCCC(C)C)CCc1ccc(O)cc1 cat=T
molecule="C=C[C@@](C)(/C=C/c1ccc(O)cc1)CCC1OC1(C)C (stereo partly drawn)" cat=F
molecule=C=C[C@@](C)(/C=C/c1ccc(OC(C)=O)cc1)CCC=C(C)C cat=F
molecule=CCCOc1ccc(/C=C/[C@@](C)(/C=C/c2ccc(O)cc2)CCC=C(C)C)cc1Cl cat=F

Now consider the entry below.
Consider the molecule COc1ccccc1/C=C/[C@@](C)(/C=C/c1ccc(O)cc1)CCC=C(C)C . Is its MBC strictly less than 8 µg/mL? T

---

tested on: Streptococcus sanguinis; test: Antibacterial activity against Streptococcus sanguinis ATCC 10556 after 48 hrs by broth microdilution method; format: functional; conditions: ATCC 10556, 48 h
propertyMeasured: MBC

Here are 4 compounds together with their reported answers.
compound=COc1ccc(/C=C/[C@@](C)(/C=C/c2ccc(O)cc2)CCC=C(C)C)cc1CO result="8 µg/mL"
compound=COc1ccccc1/C=C/[C@@](C)(/C=C/c1ccc(O)cc1)CCC=C(C)C result="4 µg/mL"
compound="C=C[C@@](C)(/C=C/c1ccc(O)cc1)CCC1OC1(C)C (stereo not given in full)" result="> 128 µg/mL"
compound=C=C[C@@](C)(/C=C/c1ccc(O)cc1)CCC=C(C)C result="2 µg/mL"

Lab note: CC[C@](C)(CCCC(C)C)CCc1ccc(O)cc1 gave MBC of 2 µg/mL

---

system: Prevotella intermedia; test: Antibacterial activity against Prevotella intermedia ATCC 25611 after 48 hrs by broth microdilution method; type: functional; conditions: ATCC 25611, 48 h
propertyMeasured: MBC (µg/mL)
Numbers only, in µg/mL.

Here are 5 compounds together with their reported answers.
compound=CC(C)=CCC[C@](C)(/C=C/c1ccc(O)cc1)/C=C/c1ccc(F)cc1 numericresult=4
compound=CC[C@](C)(CCCC(C)C)CCc1ccc(O)cc1 numericresult=4
compound=CC(C)=CCCC(C)(/C=C/c1ccc(O)cc1)/C=C/c1ccc(O)cc1 numericresult=1
compound=CCCOc1ccc(/C=C/[C@@](C)(/C=C/c2ccc(O)cc2)CCC=C(C)C)cc1Cl numericresult=32
compound=COc1ccc(/C=C/[C@@](C)(/C=C/c2ccc(O)cc2)CCC=C(C)C)cc1C=O numericresult=32

Would you mind listing MBC for each of the following compounds?
1. C=C[C@@](C)(/C=C/c1ccc(OC(C)=O)cc1)CCC=C(C)C
2. COc1ccc(/C=C/[C@@](C)(/C=C/c2ccc(O)cc2)CCC=C(C)C)cc1CO
3. C=C[C@@](C)(/C=C/c1ccc(O)cc1)CC/C=C(/C)C=O
4. COc1ccc(/C=C/[C@](C)(/C=C/c2ccc(O)cc2)CCC=C(C)C)cc1
5. COc1ccc(/C=C/[C@@](C)(/C=C/c2ccc(O)cc2)CCC=C(C)C)cc1
6. C=C[C@@](C)(/C=C/c1ccc(O)cc1)CCC1OC1(C)C (stereo partly drawn)
7. C=C[C@@](C)(/C=C/c1ccc(O)c(N)c1)CCC=C(C)C
8. CC(C)=CCC[C@@](C)(/C=C/c1ccc(N)cc1)/C=C/c1ccc(O)cc1

64
4
64
1
4
128
32
4

---

Consider the following MIC values measured on Actinomyces viscosus.
Numbers only, in µg/mL.

Here are 5 molecules together with their reported answers.
molecule=CC(C)=CCCC(C)(/C=C/c1ccc(O)cc1)/C=C/c1ccc(O)cc1 propertymeasured=MIC numericresult=0.5
molecule=CC(C)=CCC[C@@](C)(/C=C/c1ccc(N)cc1)/C=C/c1ccc(O)cc1 propertymeasured=MIC numericresult=2
molecule=C=C[C@@](C)(/C=C/c1ccc(O)c(N)c1)CCC=C(C)C propertymeasured=MIC numericresult=16
molecule=COc1ccc(/C=C/[C@@](C)(/C=C/c2ccc(O)cc2)CCC=C(C)C)cc1C=O propertymeasured=MIC numericresult=16
molecule=Oc1cc(Cl)ccc1Oc1ccc(Cl)cc1Cl propertymeasured=MIC numericresult=4

Would you mind listing MIC for each of the following molecules?
1. C=C[C@@](C)(/C=C/c1ccc(O)cc1)CCC1OC1(C)C (some centres undefined)
2. C=C[C@@](C)(/C=C/c1ccc(O)cc1)CC/C=C(/C)C=O
3. CC[C@](C)(CCCC(C)C)CCc1ccc(O)cc1

[64, 32, 2]

---

Task for the reader: assign each of the following molecules its reported MBC.
test system: Streptococcus sanguinis; assay: Antibacterial activity against Streptococcus sanguinis ATCC 10556 after 48 hrs by broth microdilution method; assay type: functional; details: ATCC 10556, 48 h
One number for each entry, in µg/mL.

molecule="Oc1cc(Cl)ccc1Oc1ccc(Cl)cc1Cl [TRICLOSAN]" propertymeasured=MBC valueunit=µg/mL numericresult=4

Lab note: CC(C)=CCC[C@](C)(/C=C/c1ccc(O)cc1)/C=C/c1ccc(F)cc1 gave MBC of 8
